assay_target: Factor X, P00742
Sequence (P00742 whole entry, looked up): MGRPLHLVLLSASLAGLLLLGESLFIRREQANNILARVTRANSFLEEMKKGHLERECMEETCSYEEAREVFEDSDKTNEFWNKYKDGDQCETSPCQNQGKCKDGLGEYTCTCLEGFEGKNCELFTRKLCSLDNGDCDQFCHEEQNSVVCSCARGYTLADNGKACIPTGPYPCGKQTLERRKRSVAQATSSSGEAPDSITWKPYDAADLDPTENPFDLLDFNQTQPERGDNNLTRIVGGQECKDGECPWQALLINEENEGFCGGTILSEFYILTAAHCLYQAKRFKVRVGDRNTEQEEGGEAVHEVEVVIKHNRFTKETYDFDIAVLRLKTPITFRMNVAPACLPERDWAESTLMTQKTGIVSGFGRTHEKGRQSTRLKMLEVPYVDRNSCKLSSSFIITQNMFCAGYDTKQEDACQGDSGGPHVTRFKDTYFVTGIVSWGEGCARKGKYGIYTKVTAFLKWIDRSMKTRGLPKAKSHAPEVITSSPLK

>  <protein>
FIXa K293E/R338E/R403E (protein) chain 1: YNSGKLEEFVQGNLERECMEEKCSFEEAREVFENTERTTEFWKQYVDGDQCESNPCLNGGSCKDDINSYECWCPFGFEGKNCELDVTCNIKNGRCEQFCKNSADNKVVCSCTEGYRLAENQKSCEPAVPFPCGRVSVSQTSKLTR chain 2: VVGGEDAKPGQFPWQVVLNGKVDAFCGGSIVNEKWIVTAAHCVETGVKITVVAGEHNIEETEHTEQKRNVIRIIPHHNYNAAINKYNHDIALLELDEPLVLNSYVTPICIADEEYTNIFLKFGSGYVSGWGRVFHKGRSALVLQYLRVPLVDRATCLESTKFTIYNNMFCAGFHEGGRDSCQGDSGGPHVTEVEGTSFLTGIISWGEECAMKGKYGIYTKVSEYVNWIKEKTKLT

>  <kcat / s⁻¹>
0.8

$$$$
>  <protein>
FIXa R318Y/R338E/E410N (protein) chain 1: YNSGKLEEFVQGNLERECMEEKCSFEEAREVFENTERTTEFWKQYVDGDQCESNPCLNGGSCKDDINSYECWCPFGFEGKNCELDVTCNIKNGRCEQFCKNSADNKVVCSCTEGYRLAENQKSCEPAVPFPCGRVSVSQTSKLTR chain 2: VVGGEDAKPGQFPWQVVLNGKVDAFCGGSIVNEKWIVTAAHCVETGVKITVVAGEHNIEETEHTEQKRNVIRIIPHHNYNAAINKYNHDIALLELDEPLVLNSYVTPICIADKEYTNIFLKFGSGYVSGWGRVFHKGYSALVLQYLRVPLVDRATCLESTKFTIYNNMFCAGFHEGGRDSCQGDSGGPHVTEVEGTSFLTGIISWGEECAMKGKYGIYTKVSRYVNWIKNKTKLT

>  <kcat / s⁻¹>
4.6

$$$$
>  <protein>
FIXa R318Y/R338E/R403E (protein) chain 1: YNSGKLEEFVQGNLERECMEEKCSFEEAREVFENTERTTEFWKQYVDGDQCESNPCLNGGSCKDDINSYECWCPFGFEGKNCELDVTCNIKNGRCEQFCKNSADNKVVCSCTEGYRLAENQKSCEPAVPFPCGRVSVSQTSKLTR chain 2: VVGGEDAKPGQFPWQVVLNGKVDAFCGGSIVNEKWIVTAAHCVETGVKITVVAGEHNIEETEHTEQKRNVIRIIPHHNYNAAINKYNHDIALLELDEPLVLNSYVTPICIADKEYTNIFLKFGSGYVSGWGRVFHKGYSALVLQYLRVPLVDRATCLESTKFTIYNNMFCAGFHEGGRDSCQGDSGGPHVTEVEGTSFLTGIISWGEECAMKGKYGIYTKVSEYVNWIKEKTKLT

>  <kcat / s⁻¹>
3.5

$$$$
